Attribution: PubChem BioAssay (NCI)

- System: NCI-H522 lung
- EXPERIMENTAL DETAILS: NCI tumour cell line growth inhibition, 48 h
Give TGI for every item shown.
Give bare numbers, in µM.

Observe how each entry below is paired with its result.
Request: State the recorded TGI for this entry: Cc1ccc2c(c1)C(=O)c1nc(C)ccc1C2=O
Result: 74.2

Request: // returns reported TGI for input COc1cc2nc(SCc3cc(OC)c(OC)c(OC)c3)n(Cc3ccccc3)c(=O)c2cc1OC
Result: 5.83

Request: Report TGI for O=C1C(Br)=C(c2ccccc2)O/C1=C/C(=O)c1ccc(Br)cc1 please.
Result: 39.1

Batch of 4 compounds: report TGI for each.
1. N#Cc1ccccc1C(Cl)(Cl)c1cnccn1
2. CSc1ccc(-c2cc(-c3nc4ccccc4[nH]3)no2)cc1
3. OCc1ccc(N2CCc3cccc(F)c3C2)cc1Cl
4. Cc1nc(N)nc2c1CCC(O)S2 (stereo not drawn)

Result:
38.4
69.5
36.3
34

Hey, quick one: what's TGI for each of these?
1. COc1ccccc1C#Cc1ccccc1C#CCCCCO
2. Cc1cc2/c(=C\c3ccc(N(C)C)cc3)c3ccccc3n2[n+]1C

Result:
1. 33.8
2. 1.99
